- testSystem: ROS1 (human)
- testDetails: KINOMEscan competition binding
- experimentalConditions: compound 10.0 µM
reportedEndpoint: kinase still bound, per cent of control (%)
Report only the number, with the unit % understood.

Consider the worked cases shown below.
>  <structureNotation>
CCN(CC)CCCCNc1ncc2cc(-c3cc(OC)cc(OC)c3)c(NC(=O)NC(C)(C)C)nc2n1

>  <testSystem>
ROS1 (human)

>  <readoutUnits>
%

>  <kinase still bound, per cent of control>
100

$$$$
>  <structureNotation>
C=CC(=O)Nc1cc(-n2c(=O)ccc3cnc4ccc(-c5cn[nH]c5)cc4c32)ccc1C

>  <testSystem>
ROS1 (human)

>  <readoutUnits>
%

>  <kinase still bound, per cent of control>
100

$$$$

Let us examine a further case.
What value of kinase still bound, per cent of control has been reported for the following compound? Cc1n[nH]c2ccc(-c3cncc(OC[C@@H](N)Cc4c[nH]c5ccccc45)c3)cc12
100
